Below: a set of entries, each annotated with reported protein stability index.
B1: STX11 (parent)
chain: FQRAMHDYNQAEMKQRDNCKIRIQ

Variants of: B1
Assay: protein stability index of a GFP-peptide fusion (GPS, HEK-293T) (PSI 1-6); higher = more stable;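 also: lentivirally expressed fusions sorted by FACS into six bins by GFP to DsRed ratio, PSI derived from sequencing read proportions per bin multiplied by bin number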
Conditions: c terminus: a fixed tail appended

MUTANT	protein stability index
H6V	2.8
N18M	2.59
Q15M	1.86
R3V	2.86
I23C	2.9
I23Q	3.52
A11T	2.43
I23L	2.87
R3N	3.12
E12M	1.6
Q15G	2.45
M13I	2.85
M5E	3.77
R3S	2.51
